- System: MCF7 breast
- Assay remarks: NCI tumour cell line growth inhibition, 48 h
Readout kind: TGI

Worked cases, TGI given:
{"Compound": "O=C(Nc1ccc(-n2cc(-c3ccncc3)c(-c3ccc(Cl)c(O)c3)n2)cc1)c1ccc(Cl)c(Cl)c1", "TGI": "> 100 µM"}
{"Compound": "NCC1OC(OC2C(N)CC(N)C(O)C2OC2OC(CO)C(O)C2O)C(N)C(O)C1O (stereo unspecified)", "TGI": "> 100 µM"}
{"Compound": "CN(C)c1ccc(/C=C2\\N=C(c3ccccc3)N(c3nc4ccc(Sc5ccccc5)cc4[nH]3)C2=O)cc1", "TGI": "> 100 µM"}

Briefly, TGI measured for CC1(O)CC23CC(O)C4(O)C(CC(O)C4(C)C)C(C)(O)C2CCC1C3O (stereo unspecified) : > 100 µM

Reported TGI of CC1CC[C@@]2(OC1)OC1C[C@H]3[C@@H]4CC=C5C[C@@H](OC6OC(CO)C(OC7OC(CO)C(O)C(O)C7O)C(O)C6OC6OC(C)C(O)C(O)C6O)CC[C@]5(C)[C@H]4CC[C@]3(C)C1[C@@H]2C (stereo partly specified) : 1.36 µM

Reported TGI ( CCOC(=O)C(NC(=O)c1ccccc1)(Nc1ccc(S(=O)(=O)Nc2cc(C)on2)cc1)C(F)(F)F (stereo unspecified) ) = > 100 µM

Kindly note the recorded TGI for CCOC(=O)/C=C(/OCC)[C@@H]1C(C(=O)c2ccc(Cl)cc2)[C@@H]1/C(=C\C(=O)OCC)OCC (stereo partly specified) , which is > 100 µM

// field: TGI; key: COc1cc(C2C3=C(NC(=O)C2C#N)c2ccc4ccccc4c2OCC3)cc(OC)c1OC (stereo unspecified) ; value = > 100 µM

Measured TGI, `CCOC(=O)NC(Nc1ccc(C(=O)O)cc1)(C(F)(F)F)C(F)(F)F` : > 100 µM

TGI measured on `Cc1ncc([N+](=O)[O-])n1CCOc1ccc(C(=O)/C=C/c2ccc(C(F)(F)F)cc2)cc1` = 4.01 µM

Short answer for O=C(c1ccccc1)C1C(c2ccccc2[N+](=O)[O-])N1C1CCCCC1 (stereo unspecified) : TGI was 15.9 µM

The recorded TGI for C=C(C)C1CCC2(C)C1CCC1(C)C2CCC2C3(C)C4OC(OC4=O)C(C)(C)C3CCC21C (stereo unspecified) is > 100 µM

// recorded TGI for `Cc1cc(C)c(C2=NO[C@@H]3[C@H]2C(=O)C=C2N(Cc4ccccc4)CCO[C@@]23O)c(C)c1` : > 100 µM

* * *

- System: PC-3 prostate
- Assay remarks: NCI tumour cell line growth inhibition, 48 h
Readout kind: TGI

Observe how each entry below is paired with its result.
{"Compound": "Nc1nc2c(ncn2C2OC(CO)C(O)C2O)c(=O)[nH]1 (stereo unspecified)", "TGI": "> 100 µM"}
{"Compound": "CN(C)CC(=O)N1CCc2c([nH]c3ccccc23)C1c1cccnc1 (stereo unspecified)", "TGI": "> 100 µM"}
{"Compound": "CCOC(=O)CC1(N)CC2c3ccccc3OC(=O)C2C(=O)N1 (stereo unspecified)", "TGI": "> 100 µM"}
{"Compound": "Cc1cc(Br)c(O)c(-c2cscn2)c1", "TGI": "27.7 µM"}
{"Compound": "CCCC/C=C1/CCC(CN(C)C)C1=O (stereo unspecified)", "TGI": "27.2 µM"}

For C=C(C)C1CCC2(C)C1CCC1(C)C2CCC2C3(C)C4OC(OC4=O)C(C)(C)C3CCC21C (stereo unspecified) the compound record lists TGI as > 100 µM

Documented TGI of `COc1cc(-c2cc(OC)c(OC)c3ccc(Br)cc23)c2cc(Br)ccc2c1OC` : 58 µM

Entry `CN(C)c1ccc(/C=C2\N=C(c3ccccc3)N(c3nc4ccc(Sc5ccccc5)cc4[nH]3)C2=O)cc1` , TGI reported as > 100 µM

Numbers sourced from PubChem BioAssay (NCI).
